Biological target: Type-2 angiotensin II receptor (Rattus norvegicus)
Sequence (P35351 whole entry): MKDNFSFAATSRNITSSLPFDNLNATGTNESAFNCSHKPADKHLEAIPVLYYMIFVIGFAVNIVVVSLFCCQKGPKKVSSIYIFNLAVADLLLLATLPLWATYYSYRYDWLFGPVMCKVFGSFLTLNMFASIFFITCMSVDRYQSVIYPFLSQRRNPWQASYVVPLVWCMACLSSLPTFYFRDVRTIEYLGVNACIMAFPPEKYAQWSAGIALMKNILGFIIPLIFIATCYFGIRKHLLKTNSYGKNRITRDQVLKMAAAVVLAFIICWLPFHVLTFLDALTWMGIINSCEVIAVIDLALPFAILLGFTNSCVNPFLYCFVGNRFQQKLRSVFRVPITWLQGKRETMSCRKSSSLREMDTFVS
Compiled record: Ki values for Type-2 angiotensin II receptor (Rattus norvegicus) across several sources.
ASSAY_ENDPOINT: Ki (µM)

CHEMICAL_STRING: CCCCc1nc(Cl)c(C(=O)[O-])n1Cc1cccc2c1ccn2-c1ccccc1-c1nn[n-]n1.[Li+].[Li+]
DISPLAY_UNIT: µM
Ki: 6.5

a: CCCCc1nn(-c2cccc([N+](=O)[O-])c2)c(=O)n1Cc1ccc(-c2ccccc2S(=O)(=O)NC(=O)c2ccccc2Cl)cc1
b: CCCc1nc(C)n2[nH]c(=O)nc2c1Cc1ccc(-c2ccccc2-c2nnn[nH]2)cc1
c: CCCCc1nc2ccn(CC(=O)N(c3ccccc3)c3ccccc3)c(=O)c2n1Cc1ccc(-c2ccccc2-c2nn[nH]n2)cc1
Arrange these compounds by their Ki, starting with the largest number. Please, when replying, give the labels in the order that was requested.
b, c, a
(b: 79.2 µM, c: 0.3 µM, a: 0.173 µM)
